# targetUnderTest: XIAP-BIR2 (Homo sapiens, UniProt P98170, C202A/C213G)
# Construct: X-IAP BIR2 (amino acid residues 124-240 with mutations C202A and C213G); made in house; host or cells: Escherichia coli BL21 (DE3)
# Sequence (P98170 124-240 C202A/C213G): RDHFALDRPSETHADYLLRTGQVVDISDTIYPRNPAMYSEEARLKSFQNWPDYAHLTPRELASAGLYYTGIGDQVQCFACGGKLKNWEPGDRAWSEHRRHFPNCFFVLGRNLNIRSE
# assayName: fluorescence polarization competition assay, XIAP-BIR2
# Format: binding
# measurementConditions: Table 4, P4 amino acid/phenylethylamine scan; Hid-FAM probe
# Protocol: The apparent Kd values can be determined from the EC50 values. The vectors pET15b-XIAPBIR2C202AC218G, pET15b-XIAPBIR3, and pET15b-MLIAPBIR were introduced into Escherichia coli strain BL21 (DE3). Overnight cultures were diluted 1:100 and grown at 30° C. in LB media with […] to an A600 of 0.5-0.7 with vigorous shaking. […] The apparent Kd values were determined from the EC50 values. […] Samples were read after a 10-minute incubation.
Non-standard residues stand in square brackets, D forms with d. Residues, ends and D or L forms follow the SMILES beside them. Phe(ol) = N[C@H](CO)Cc1ccccc1
propertyName: pKi
Scale note: pKi = -log10(concentration in M).

Query: Checklist item: pKi tested on XIAP-BIR2 (Homo sapiens, UniProt P98170, C202A/C213G), entry CC(C)[C@H](NC(=O)[C@H](C)N)C(=O)N1CCC[C@H]1C(=O)N[C@H](CO)Cc1ccccc1 [AVPX32] (H-AVP[Phe(ol)]; N-terminus assumed) , value?
Response: 3.36
